Please go through the items and note down their AC50.
tested on: Plasmodium falciparum Dd2 asexual blood stage parasites; assay: microbe, parasite or virus in culture; parameters: species or system Plasmodium falciparum Dd2 in human erythrocytes; single determination (one 11-point concentration-response curve); conditions: Plasmodium falciparum, DD2, Erythrocyte, 72 h; read-out: AC50
Give bare numbers, in µM.

>  <MOLECULE>
CC(C)(C)OC(=O)N1CCC(CC2CC(c3ccccc3)=NO2)(C(=O)NCc2ccccc2)CC1 (stereo not drawn) [MLS002174287-01]

>  <RECORDED NUMBER>
2.66

$$$$
>  <MOLECULE>
COc1cccc(-c2nn3c(=O)cc(CN4CCN([S+](=O)([O-])c5ccc(C)cc5)CC4)nc3s2)c1 [NCGC00134088-01]

>  <RECORDED NUMBER>
8.41

$$$$
>  <MOLECULE>
CCNC(S)=N/N=C/c1sc(N2CCCCC2)nc1-c1cccs1 [MLS000335256-01]

>  <RECORDED NUMBER>
0.668

$$$$
>  <MOLECULE>
COc1ccc2nc(N(Cc3cccnc3)C(=O)CCc3ccccc3)sc2c1 [NCGC00136611-01]

>  <RECORDED NUMBER>
6.68

$$$$
>  <MOLECULE>
Cc1nn2c(c1-c1ccccc1[S+](C)(=O)[O-])N(CCC(C)C)CCC2 [NCGC00420381-01]

>  <RECORDED NUMBER>
9.68

$$$$
>  <MOLECULE>
CC(=O)Nc1nc2ccccc2n1Cc1ccc(Cl)cc1 [MLS000779302-01]

>  <RECORDED NUMBER>
8.41

$$$$

Provide each entry's AC50 from the list below.
1. Cc1cc(Cl)c(S(=O)(=O)N2CCN(c3ccccn3)CC2)cc1OCC(=O)NC1CCCCC1 [MLS000693481-01]
2. CC1(c2ccccc2)N(Cc2ccc(O)cc2)C(=O)OC12CCN(Cc1c[nH]c3ccccc13)CC2 (stereo not drawn) [NCGC00415668-01]
3. Cc1cccc(NC2=C(NC(=O)c3ccccc3)C(=O)c3ccccc3C2=O)c1 [MLS000392330-01]

Result:
[0.668, 5.31, 0.944]
